tested on: HCV replicon, genotype-1a variant with glutamine 30 changed to glutamate in the NS5A protein; experiment: microbe, parasite or virus in culture; type: cell-based, HCV genotype 1a; details: HCV replicon genotype 1a Q30E (Q→E) variant; test compound titrated with an NS5A-targeting compound (BMS-790052 fixed at 200 nM); ranking of synergist activity
Below, each of the compounds is paired with its reported Fold-Synergistic 1a (Q30E) value.

Entry CC(C)(C)[C@H](O)C(=O)N[C@H](c1nc(-c2ccc(-c3ccc(-c4c[nH]c([C@@H](NC(=O)[C@@H](O)C(C)(C)C)C(C)(C)C)n4)cc3)cc2)c[nH]1)C(C)(C)C , Fold-Synergistic 1a (Q30E) reported as >100 fold

Entry CC(C)CCC(=O)N1CCC[C@H]1c1ncc(-c2ccc(-c3ccc(-c4cnc([C@@H]5CCCN5C(=O)CCC(C)C)[nH]4)cc3)cc2)[nH]1 , Fold-Synergistic 1a (Q30E) reported as <10 fold

Entry CC(C)(C)[C@H](NC(=O)C(C)(C)n1ncnn1)c1nc(-c2ccc(-c3ccc(-c4c[nH]c([C@@H](NC(=O)C(C)(C)n5ncnn5)C(C)(C)C)n4)cc3)cc2)c[nH]1 , Fold-Synergistic 1a (Q30E) reported as >100 fold

Entry CC(C)(C)OC(=O)N1CC(C)(C)OC[C@H]1C(=O)N[C@H](c1nc(-c2ccc(-c3ccc(-c4c[nH]c([C@@H](NC(=O)[C@@H]5COC(C)(C)CN5C(=O)OC(C)(C)C)C(C)(C)C)n4)cc3)cc2)c[nH]1)C(C)(C)C , Fold-Synergistic 1a (Q30E) reported as >100 fold

Entry CC(C)(C)[C@H](NC(=O)C1CC(=O)c2ccccc21)c1nc(-c2ccc(-c3ccc(-c4c[nH]c([C@@H](NC(=O)C5CC(=O)c6ccccc65)C(C)(C)C)n4)cc3)cc2)c[nH]1 (some centres unmarked) , Fold-Synergistic 1a (Q30E) reported as >10 fold

----------
test system: HCV replicon, genotype-1a variant with glutamine 30 changed to glutamate in the NS5A protein; assay: microbe, parasite or virus in culture; format: cell-based, HCV genotype 1a; settings: HCV replicon genotype 1a Q30E (Q→E) variant; test compound titrated with an NS5A-targeting compound (BMS-790052 fixed at 200 nM); ranking of synergist activity
Experimental endpoint: Fold-Synergistic 1a (Q30E)

>>> data_value("C[C@@H]1C[C@@H](C(=O)N[C@H](c2nc(-c3ccc(-c4ccc(-c5c[nH]c([C@@H](NC(=O)[C@@H]6C[C@@H](C)CN6C(=O)OC(C)(C)C)C(C)(C)C)n5)cc4)cc3)c[nH]2)C(C)(C)C)N(C(=O)OC(C)(C)C)C1 [Compound W-120]")
">100 fold"
>>> data_value("CC(C)[C@H](NC(=O)C1CC2(C1)OCCO2)c1nc(-c2ccc(-c3ccc(-c4c[nH]c([C@@H](NC(=O)C5CC6(C5)OCCO6)C(C)C)n4)cc3)cc2)c[nH]1 (some centres unmarked) [Compound W-176]")
">100 fold"

Entry Cc1cc(C(=O)N2CCC[C@H]2c2ncc(-c3ccc(-c4ccc(-c5cnc([C@@H]6CCCN6C(=O)c6cc(C)nc(Cl)c6)[nH]5)cc4)cc3)[nH]2)cc(Cl)n1 [Compound S-131] , Fold-Synergistic 1a (Q30E) reported as >10 fold

Entry CC1(C(=O)N2CCC[C@H]2c2ncc(-c3ccc(-c4ccc(-c5cnc([C@@H]6CCCN6C(=O)C6(C)CC6)[nH]5)cc4)cc3)[nH]2)CC1 [Compound S-160] , Fold-Synergistic 1a (Q30E) reported as <10 fold

Entry N#Cc1ccccc1C(=O)N1CCC[C@H]1c1ncc(-c2ccc(-c3ccc(-c4cnc([C@@H]5CCCN5C(=O)c5ccccc5C#N)[nH]4)cc3)cc2)[nH]1 [Compound S-127] , Fold-Synergistic 1a (Q30E) reported as <10 fold
